Source of measurements: patent US11078232B2

Listing: Stability(%) of selected compounds
assay: Solid stability, 60° C. for 10 days in the dark (HPLC); format: physicochemical; conditions: solid, 60° C., 10 days, dark; content versus time 0
Residues, ends and D or L forms follow the SMILES beside them. *: point of attachment. X1 = CN(CCNC(=O)c1cc(Oc2ccc(NC(=O)Nc3ccc(Cl)c(C(F)(F)F)c3)cc2)ccn1)*
The answer is to be given in %; state only the numeric part.

CC(C)C[C@H](NC(=O)[C@H](CC(N)=O)NC(=O)[C@H](C)NC(=O)[C@H](C)N)C(=O)N(C)CCNC(=O)c1cc(Oc2ccc(NC(=O)Nc3ccc(Cl)c(C(F)(F)F)c3)cc2)ccn1 [Compound C1, AANL-Compound a, reference compound] (H-AANL-X1): 96.8

// moving on: another record for Stability(%)
**Query** Stability(%) for CC(NC(=O)C(NC(=O)[C@H](O)[C@H](O)[C@@H](O[C@@H]1O[C@H](CO)[C@H](O)[C@H](O)[C@H]1O)[C@H](O)CO)C(C)O)C(=O)NC(CC(N)=O)C(=O)Nc1ccc(COC(=O)N(C)CCNC(=O)c2cc(Oc3ccc(NC(=O)Nc4ccc(Cl)c(C(F)(F)F)c4)cc3)ccn2)cc1 (some centres unmarked) [Compound S13, Lacto-TAN-PABC-compound a] ?
**Result** 98.6
